Reference for the values: patent US8957074B2

Test system: phosphorylation of pRb at the Ser780 site in JeKo-1 mantle cell lymphoma cells
Experiment: CDK4 cellular assay: ELISA of pRb phosphorylation at Ser780 in JeKo-1 cells
Type: cell-based
Conditions: Homo sapiens, JeKo-1, JeKo-1 cells, p-pRb % inhibition adjusted with total pRb levels; read-out: Normalized cellular ppRb inhibition IC50
I'd appreciate it if you marked entries Satisfied when IC50 is lower than 70 nM and Not satisfied when it is not.

See these solved cases before continuing.
Problem: In the record for CN(C)C(=O)c1cc2cnc(Nc3ccc(N4C[C@H]5CC[C@@H](CC4=O)N5)cn3)nc2n1C1CCCCC1 [Example 133] , is IC50 less than 70 nM?
Result: Satisfied

Problem: In the record for CN1C[C@@H]2CC(=O)N(c3ccc(Nc4ncc5cc(C(=O)N(C)C)n(C6CCCCCC6)c5n4)nc3)C[C@@H]2C1 [Example 93] , is IC50 less than 70 nM?
Result: Satisfied

Problem: In the record for CN(C)C(=O)c1cc2cnc(Nc3ccc(C(=O)N4CC5CCC(C4)O5)cn3)nc2n1C1CCCC1 [Example 74] , is IC50 less than 70 nM?
Result: Not satisfied

Others:
Problem: In the record for CN(C)C(=O)c1cc2cnc(Nc3ccc(N4C[C@@H]5CC[C@H](CC4=O)N5C)cn3)nc2n1C1CCCC1 [Example 141] , is IC50 less than 70 nM?
Result: Satisfied

Problem: In the record for CN(C)C(=O)c1cc2cnc(Nc3ccc(C(=O)N4CC5CCC(C4)N5C)cn3)nc2n1C1CCCC1 [Example 45] , is IC50 less than 70 nM?
Result: Satisfied

Problem: In the record for CN(C)C(=O)c1cc2cnc(Nc3ccc(N4CC5CCC(CC4=O)N5)cn3)nc2n1C1CCC1 (centres unmarked) [Example 134] , is IC50 less than 70 nM?
Result: Not satisfied

Problem: In the record for CN(C)C(=O)c1cc2cnc(Nc3ccc(C(=O)N4C[C@@H]5C[C@]5(N)C4)cn3)nc2n1C1CCCC1 (stereo in doubt) [Example 15] , is IC50 less than 70 nM?
Result: Not satisfied

Problem: In the record for CN(C)C(=O)c1cc2cnc(Nc3ccc(C(=O)N4CC5CN(Cc6ccccc6)CC(C4)O5)cn3)nc2n1C1CCCC1 [Example 46] , is IC50 less than 70 nM?
Result: Not satisfied
